Target: D(2) dopamine receptor (Homo sapiens, UniProt P14416)
Sequence (P14416 whole entry): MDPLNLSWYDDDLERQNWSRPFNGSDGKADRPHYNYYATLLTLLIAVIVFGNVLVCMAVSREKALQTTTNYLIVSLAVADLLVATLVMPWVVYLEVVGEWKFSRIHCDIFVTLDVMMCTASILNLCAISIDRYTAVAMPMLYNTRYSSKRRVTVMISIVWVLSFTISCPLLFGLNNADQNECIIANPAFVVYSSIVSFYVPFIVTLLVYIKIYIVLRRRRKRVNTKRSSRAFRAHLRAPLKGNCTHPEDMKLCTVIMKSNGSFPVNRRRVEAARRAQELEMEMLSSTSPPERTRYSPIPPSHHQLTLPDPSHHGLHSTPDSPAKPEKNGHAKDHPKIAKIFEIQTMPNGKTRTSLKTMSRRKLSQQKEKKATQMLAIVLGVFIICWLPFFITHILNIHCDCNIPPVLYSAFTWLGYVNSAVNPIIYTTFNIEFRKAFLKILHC
pKi: −log10 of the molar value.
PROPERTY: pKi

* CC(C)c1ccccc1OCCN1CCC(NS(=O)(=O)c2cccc3ncccc23)CC1 | 6.98
* CC(C)c1ccccc1OCCN1CCC(NS(=O)(=O)c2cc(F)ccc2F)CC1 | 6.83

I. O=S(=O)(NC1CCN(CCOc2ccccc2-c2ccccc2)CC1)c1cccc(Cl)c1
II. CC(C)c1ccccc1OCCN1CCC(NS(=O)(=O)c2ccccc2F)CC1
Prompt: Field: entry with larger pKi (options I / II ). Mark your selection by writing its label.
Response: II

###

Target: Adrenergic receptor alpha-1 (Rattus norvegicus, UniProt P15823+P23944+P43140)
Assay: Displacement of [3H]-Prazosin from alpha-1 adrenergic receptor in rat cerebral cortex after 1 hr by microplate reader based assay
Assay type: tissue-based
PROPERTY: Ki (nM)

a. CC(C)c1ccccc1OCCN1CCC(NS(=O)(=O)c2cccc3ncccc23)CC1
b. CC(C)c1ccccc1OCCN1CCC(NS(=O)(=O)c2cnn(C)c2)CC1
Prompt: Field: entry with larger Ki (options a / b ). Mark your selection by writing its label.
Response: a
(a: 712 nM, b: 389 nM)

P. CC(C)c1ccccc1OCCN1CCC(NS(=O)(=O)c2cc(F)ccc2F)CC1
Q. O=S(=O)(NC1CCN(CCOc2ccccc2-c2ccccc2)CC1)c1ccc(F)c(F)c1
Prompt: Min Ki? P | Q Mark your selection by writing its label.
Response: P
(P: 589 nM, Q: 2541 nM)

a. CC(C)c1ccccc1OCCN1CCC(NS(=O)(=O)c2ccccc2F)CC1
b. O=S(=O)(NC1CCN(CCOc2ccccc2-c2ccccc2)CC1)c1cccc(Cl)c1
Prompt: Field: entry with larger Ki (options a / b ). Mark your selection by writing its label.
Response: b

###

System: HEK293
Experiment: Selectivity ratio of Ki for human 5-HT1A receptor to Ki for human 5-HT7B receptor expressed in HEK293 cells
Type: cell-based
PROPERTY: Ratio Ki
The answer should be a number; do not append a unit.

- CC(C)c1ccccc1OCCN1CCC(NS(=O)(=O)c2cnn(C)c2)CC1: 32

Turning to the following molecule.
Prompt: Query Ratio Ki on HEK293 for "CC(C)c1ccccc1OCCN1CCC(NS(=O)(=O)c2ccc(Cl)s2)CC1"
Response: 19

###

Here we list molecules with their recorded Ki when tested on 5-hydroxytryptamine receptor 7 (Homo sapiens).
Sequence (P34969 whole entry): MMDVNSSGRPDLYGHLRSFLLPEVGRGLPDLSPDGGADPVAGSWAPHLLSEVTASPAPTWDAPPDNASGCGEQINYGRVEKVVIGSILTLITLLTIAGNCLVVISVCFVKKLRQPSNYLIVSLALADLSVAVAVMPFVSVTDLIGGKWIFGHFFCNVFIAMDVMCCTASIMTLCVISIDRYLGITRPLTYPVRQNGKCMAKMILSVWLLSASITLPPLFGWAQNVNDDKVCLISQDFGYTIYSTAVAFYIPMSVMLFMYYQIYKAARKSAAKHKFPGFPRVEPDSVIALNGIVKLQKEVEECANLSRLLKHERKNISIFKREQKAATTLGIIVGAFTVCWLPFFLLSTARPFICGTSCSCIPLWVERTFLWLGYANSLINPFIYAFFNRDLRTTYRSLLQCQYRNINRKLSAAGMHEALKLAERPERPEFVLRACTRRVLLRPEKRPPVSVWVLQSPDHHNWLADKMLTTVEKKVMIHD
PROPERTY: Ki (nM)

Known Ki results, listed for orientation:
- O=S(=O)(NC1CCN(CCOc2ccccc2-c2ccccc2)CC1)c1cccc(Cl)c1: 6
- CC(C)CS(=O)(=O)NC1CCN(CCOc2ccccc2C(C)C)CC1: 200
- CC(C)c1ccccc1OCCN1CCC(NS(=O)(=O)c2cncc3ccccc23)CC1: 21
- O=S(=O)(NC1CCN(CCOc2ccccc2-c2ccccc2)CC1)c1ccc(F)cc1: 7
- CC(C)c1ccccc1OCCN1CCC(NS(=O)(=O)c2ccc(F)c(F)c2)CC1: 28
- O=S(=O)(NC1CCN(CCOc2ccccc2-c2ccccc2)CC1)c1ccccc1: 49

P. CC(C)CS(=O)(=O)NC1CCN(CCOc2ccccc2-c2ccccc2)CC1
Q. Cn1cc(S(=O)(=O)NC2CCN(CCOc3ccccc3-c3ccccc3)CC2)cn1
Prompt: Min Ki? P | Q Mark your selection by writing its label.
Response: Q
(Q: 19 nM, P: 44 nM)

###

Target: UniProt P34969
Assay: Antagonist activity at human serotonin 5-HT7B receptor expressed in CHO cells assessed as inhibition of serotonin-induced cAMP production at 1 uM after 30 mins by HTRF assay relative to control
Assay type: functional, cell-based
PROPERTY: inhibition (%)

* CC(C)c1ccccc1OCCN1CCC(NS(=O)(=O)c2cccc3ncccc23)CC1 | 96
* CC(C)c1ccccc1OCCN1CCC(NS(=O)(=O)c2cc(F)ccc2F)CC1 | 84
* CC(C)c1ccccc1OCCN1CCC(NS(=O)(=O)c2cnn(C)c2)CC1 | 85
* O=S(=O)(NC1CCN(CCOc2ccccc2-c2ccccc2)CC1)c1cccc(Cl)c1 | 95

###

Target protein (sequence): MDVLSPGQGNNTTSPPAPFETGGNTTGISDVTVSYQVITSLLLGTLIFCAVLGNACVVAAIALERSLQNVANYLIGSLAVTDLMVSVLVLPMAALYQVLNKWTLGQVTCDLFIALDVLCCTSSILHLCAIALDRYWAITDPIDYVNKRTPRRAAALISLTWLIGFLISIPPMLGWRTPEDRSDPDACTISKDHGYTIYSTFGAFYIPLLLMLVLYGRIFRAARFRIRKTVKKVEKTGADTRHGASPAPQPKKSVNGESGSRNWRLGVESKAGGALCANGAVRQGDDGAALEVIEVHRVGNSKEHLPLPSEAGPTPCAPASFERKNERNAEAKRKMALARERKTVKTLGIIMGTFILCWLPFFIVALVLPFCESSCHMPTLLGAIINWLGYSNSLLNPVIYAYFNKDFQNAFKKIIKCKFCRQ
PROPERTY: Ki (nM)

Known Ki results, listed for orientation:
- O=S(=O)(NC1CCN(CCOc2ccccc2-c2ccccc2)CC1)c1cccc(F)c1: 368
- CC(C)c1ccccc1OCCN1CCC(NS(=O)(=O)c2ccc(F)c(F)c2)CC1: 373
- CC(C)c1ccccc1OCCN1CCC(NS(=O)(=O)c2ccccc2)CC1: 249
- O=S(=O)(NC1CCN(CCOc2ccccc2-c2ccccc2)CC1)c1cccc2ncccc12: 102

a. CC(C)c1ccccc1OCCN1CCC(NS(=O)(=O)c2cncc3ccccc23)CC1
b. O=S(=O)(NC1CCN(CCOc2ccccc2-c2ccccc2)CC1)c1ccc(F)cc1
Prompt: Field: entry with larger Ki (options a / b ). Mark your selection by writing its label.
Response: b

###

Listed here are molecules together with their documented Ratio Ki.
Test system: HEK293
Experiment: Selectivity ratio of Ki for human 5-HT1A receptor to Ki for human 5-HT7B receptor expressed in HEK293 cells
Type: cell-based
The answer should be a number; do not append a unit.

Known Ratio Ki results, listed for orientation:
* CC(C)c1ccccc1OCCN1CCC(NS(=O)(=O)c2cncc3ccccc23)CC1 | 5
* O=S(=O)(NC1CCN(CCOc2ccccc2-c2ccccc2)CC1)c1ccc(F)cc1 | 23
* Cn1cc(S(=O)(=O)NC2CCN(CCOc3ccccc3-c3ccccc3)CC2)cn1 | 17
* O=S(=O)(NC1CCN(CCOc2ccccc2-c2ccccc2)CC1)c1ccc(Cl)s1 | 16

Prompt: Recorded Ratio Ki for "O=S(=O)(NC1CCN(CCOc2ccccc2-c2ccccc2)CC1)c1cncc2ccccc12" , please?
Response: 8

Prompt: Recorded Ratio Ki for "O=S(=O)(NC1CCN(CCOc2ccccc2-c2ccccc2)CC1)c1cccc(Cl)c1" , please?
Response: 33

###

System: HEK293
Assay: Selectivity ratio of Ki for human 5-HT1A receptor to Ki for human 5-HT7B receptor expressed in HEK293 cells
Type: cell-based
PROPERTY: Ratio Ki
The answer should be a number; do not append a unit.

Known Ratio Ki results, listed for orientation:
- CC(C)CS(=O)(=O)NC1CCN(CCOc2ccccc2-c2ccccc2)CC1: 2
- O=S(=O)(NC1CCN(CCOc2ccccc2-c2ccccc2)CC1)c1ccccc1: 6
- O=S(=O)(NC1CCN(CCOc2ccccc2-c2ccccc2)CC1)c1ccc(F)c(F)c1: 45
- CC(C)c1ccccc1OCCN1CCC(NS(=O)(=O)c2cccc3ncccc23)CC1: 33
- CC(C)c1ccccc1OCCN1CCC(NS(=O)(=O)c2cccc(Cl)c2)CC1: 22
- O=S(=O)(NC1CCN(CCOc2ccccc2-c2ccccc2)CC1)c1cccc(F)c1: 10
- O=S(=O)(NC1CCN(CCOc2ccccc2-c2ccccc2)CC1)c1cc(F)ccc1F: 26

Turning to the following compound.
Prompt: Recorded Ratio Ki for "O=S(=O)(NC1CCN(CCOc2ccccc2-c2ccccc2)CC1)c1cccc2ncccc12" , please?
Response: 13

Origin of measurements: ChEMBL document CHEMBL3739404
